B1: ADAMTS4 (parent)
chain: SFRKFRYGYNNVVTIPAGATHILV

Variants of: B1
PROTOCOL TEXT: protein stability index of a GFP-peptide fusion (GPS, HEK-293T) (PSI 1-6); higher = more stable;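 note: lentivirally expressed fusions sorted by FACS into six bins by GFP to DsRed ratio, PSI derived from sequencing read proportions per bin multiplied by bin number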
COND: c terminus: a fixed tail appended
RECORDED METRIC: protein stability index

query: Assign protein stability index to the following record: SFRKFRYGYNNVVTIPAGATHDLV [I22D]
result: 2.24

query: Input NFRKFRYGYNNVVTIPAGATHILV [S1N] , output reported protein stability index.
result: 2

These measurements were taken from the supplement of paper PMC10567573.
